Each record here notes measured Kd.
Target under test: T1, β-catenin (Homo sapiens, UniProt P35222)
T1 chain: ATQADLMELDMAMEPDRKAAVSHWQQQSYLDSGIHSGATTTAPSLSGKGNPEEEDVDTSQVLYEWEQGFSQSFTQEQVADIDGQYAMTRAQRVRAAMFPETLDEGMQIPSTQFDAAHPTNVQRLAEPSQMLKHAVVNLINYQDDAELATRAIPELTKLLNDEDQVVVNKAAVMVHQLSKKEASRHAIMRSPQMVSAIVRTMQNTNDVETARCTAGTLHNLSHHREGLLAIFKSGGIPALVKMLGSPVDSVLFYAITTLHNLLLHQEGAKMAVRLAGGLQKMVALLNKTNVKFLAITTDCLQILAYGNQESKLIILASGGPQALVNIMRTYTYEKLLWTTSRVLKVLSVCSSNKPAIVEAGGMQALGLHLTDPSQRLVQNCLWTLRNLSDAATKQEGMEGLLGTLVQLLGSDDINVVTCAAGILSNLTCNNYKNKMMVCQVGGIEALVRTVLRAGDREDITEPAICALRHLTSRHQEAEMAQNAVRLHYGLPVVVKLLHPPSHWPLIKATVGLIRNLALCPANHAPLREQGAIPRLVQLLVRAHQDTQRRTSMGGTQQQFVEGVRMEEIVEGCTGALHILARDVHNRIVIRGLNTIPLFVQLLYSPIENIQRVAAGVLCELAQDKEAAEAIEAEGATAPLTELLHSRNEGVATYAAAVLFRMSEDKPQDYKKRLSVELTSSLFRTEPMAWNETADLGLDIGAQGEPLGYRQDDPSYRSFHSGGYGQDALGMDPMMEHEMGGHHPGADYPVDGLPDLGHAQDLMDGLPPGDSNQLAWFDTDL
Protocol: direct fluorescence polarisation
No end group written: not given here. *: point of attachment. FITC = O=C1OC2(c3ccc(O)cc3Oc3cc(O)ccc32)c2ccc(NC(=S)*)cc21
Write it as a number; the unit nM goes unstated.

• {FITC}-PESILDEHVQRVLRT (staple (positions not given here); not fully specified (residues 5, 9, bridges); also: all-hydrocarbon staple at 471/475 (positions 5, 9), stapling residues not named) [fStAx-3 (FITC-labelled RCM-stapled axin CBD peptide) 467-481] = 63

Query: Please give the documented Kd of PESILDEHVQRVLRT (also: FITC label, site not given here) [fAxWt (FITC-labelled axin CBD peptide) 467-481]
Response: 1190
